- assay notes: in vivo
- condition details: male, rat, plasma, 6 mg/rat
measured metric: level at 96 h (ng/mL)
Report as a plain number; the unit ng/mL is understood.

So what's the measured level at 96 h for this one? C[C@@H](O)[C@@H]1NC(=O)[C@H](CCCCN)NC(=O)[C@@H](Cc2c[nH]c3ccccc23)NC(=O)[C@H](Cc2ccccc2)NC(=O)[C@@H](NC(=O)[C@H](N)Cc2ccccc2)CSSC[C@@H](C(=O)N[C@H](CO)[C@@H](C)O)NC1=O [Octreotide]
62.5

---

- assay notes: in vivo
- condition details: male, rat, plasma, 6 mg/rat
measured metric: level at 144 h (ng/mL)
Report as a plain number; the unit ng/mL is understood.

So what's the measured level at 144 h for this one? C[C@@H](O)[C@@H]1NC(=O)[C@H](CCCCN)NC(=O)[C@@H](Cc2c[nH]c3ccccc23)NC(=O)[C@H](Cc2ccccc2)NC(=O)[C@@H](NC(=O)[C@H](N)Cc2ccccc2)CSSC[C@@H](C(=O)N[C@H](CO)[C@@H](C)O)NC1=O [Octreotide]
4.5

---

- assay notes: in vivo
- condition details: male, rat, plasma, 6 mg/rat
measured metric: level at 24 h
State the value, then name its unit.

So what's the measured level at 24 h for this one? C[C@@H](O)[C@@H]1NC(=O)[C@H](CCCCN)NC(=O)[C@@H](Cc2c[nH]c3ccccc23)NC(=O)[C@H](Cc2ccccc2)NC(=O)[C@@H](NC(=O)[C@H](N)Cc2ccccc2)CSSC[C@@H](C(=O)N[C@H](CO)[C@@H](C)O)NC1=O [Octreotide]
40.2 ng/mL
